system: Vero cells; experiment: Half toxic concentration in the anti-herpes screening; format: cell-based, African green monkey
RECORDED METRIC: TC50 half toxic concentration (µg/mL)
Supply the numeric figure in µg/mL, leaving out any unit text.

Problem: // returns reported TC50 half toxic concentration for input O=C(c1ccc(O)c(O)c1O)c1ccc(O)c(O)c1O [2,3,4,2′,3′,4′-hexahydroxybenzophenone]
Solution: 12.35

Problem: Another: O=C(c1ccccc1)c1ccc(O)c(O)c1O [2,3,4-trihydroxybenzophenone]
Solution: 53.42

Problem: Would you kindly repeat that for O=C(c1ccccc1O)c1ccccc1O [2,2′-dihydroxybenzophenone] ?
Solution: 64.15

Problem: What would you report for O=C(c1ccc(O)cc1O)c1ccc(O)cc1O [2,4,2′,4′-tetrahydroxybenzophenone] ?
Solution: 111.11

Problem: Please answer likewise for O=C(c1cc(O)c(O)cc1O)c1ccc(O)c(O)c1O
Solution: 86.23

---

system: human cervical cancer cell line (HeLa); test: MTT in vitro tumor cell inhibition; format: cell-based; conditions: 10^−4 g/ml, 3 days
RECORDED METRIC: Inhibitory rate % (%)
Give your result in % as a bare value.

Problem: Item under review: O=C(c1ccc(O)c(O)c1)c1cc(O)c(O)c(O)c1O [2,3,3′,4,4′,5-hexahydroxybenzophenone] . Reported Inhibitory rate %?
Solution: 58.94

Problem: Try O=C(c1ccc(O)c(O)c1O)c1ccc(O)c(O)c1O [2,3,4,2′,3′,4′-hexahydroxybenzophenone] next.
Solution: 61.12

Problem: Next up: O=C(c1ccccc1)c1ccc(O)cc1O [2,4-dihydroxybenzophenone]
Solution: 95.65

Problem: Subsequent entry: O=C(c1ccc(O)cc1O)c1ccc(O)cc1O [2,4,2′,4′-tetrahydroxybenzophenone]
Solution: 31.05

Problem: Now consider O=C(c1cc(O)c(O)cc1O)c1ccc(O)c(O)c1O .
Solution: 60.92

Problem: // repeat for O=C(c1ccccc1)c1ccc(O)c(O)c1O [2,3,4-trihydroxybenzophenone] and report
Solution: 89.81

---

Please provide measured Inhibitory rate % for the entries that follow.
tested on: MCF7; experiment: MTT in vitro tumor cell inhibition; assay type: cell-based; conditions: MCF7, 10^−4 g/ml, 3 days
Reply with just the number (in %).

Problem: Param readout = Inhibitory rate %; param system = MCF7; param query = O=C(c1cc(O)c(O)cc1O)c1ccc(O)c(O)c1O ; response: value
Solution: 73.19

Problem: And O=C(c1ccc(O)cc1O)c1ccc(O)cc1O [2,4,2′,4′-tetrahydroxybenzophenone] ?
Solution: 45.73

Problem: Also need O=C(c1ccc(O)c(O)c1O)c1ccc(O)c(O)c1O [2,3,4,2′,3′,4′-hexahydroxybenzophenone] , thanks.
Solution: 76.37

Problem: Moving on to O=C(c1ccccc1)c1ccc(O)cc1O [2,4-dihydroxybenzophenone]
Solution: 87.60

Problem: Same lookup for O=C(c1ccc(O)c(O)c1)c1cc(O)c(O)c(O)c1O [2,3,3′,4,4′,5-hexahydroxybenzophenone] , please.
Solution: 65.36

Problem: How about O=C(c1ccccc1)c1ccc(O)c(O)c1O [2,3,4-trihydroxybenzophenone] ?
Solution: 78.59

---

Can you tell me Inhibitory rate % for the items I'm about to list?
System: human umbilical vein endothelial cell line (ECV304)
Test: MTT in vitro cell inhibition
Format: cell-based
Conditions: ECV304, 10^−5 g/ml, 3 days
Description: An effective amount of the above compounds and/or the compositions containing the same used as an active ingredient have an effect on inhibiting the tumor cells. […] The method is used to detect cell viability. […] Particles can be dissolved by dimethyl sulfoxide (DMSO) isopropyl alcohol or 10% acidified SDS (sodium dodecyl sulfate), and a microplate reader is used to measure the OD value at A570 wavelength, which indirectly reflects the number of live cells. […]
Provide only the numeric value, understood in %.

Problem: # get_value(readout='Inhibitory rate %', item= O=C(c1ccc(O)c(O)c1)c1cc(O)c(O)c(O)c1O [2,3,3′,4,4′,5-hexahydroxybenzophenone] )
Solution: 43.47

Problem: Also, O=C(c1ccccc1)c1ccc(O)c(O)c1O [2,3,4-trihydroxybenzophenone] please.
Solution: 45.81

Problem: # repeat for O=C(c1ccccc1)c1ccc(O)cc1O [2,4-dihydroxybenzophenone]
Solution: 73.12

Problem: # repeat for O=C(c1cc(O)c(O)cc1O)c1ccc(O)c(O)c1O
Solution: 53.62
